Molecular target: Tie2 receptor tyrosine kinase (Homo sapiens, UniProt Q02763)
Sequence (Q02763 770-1124 limits assumed): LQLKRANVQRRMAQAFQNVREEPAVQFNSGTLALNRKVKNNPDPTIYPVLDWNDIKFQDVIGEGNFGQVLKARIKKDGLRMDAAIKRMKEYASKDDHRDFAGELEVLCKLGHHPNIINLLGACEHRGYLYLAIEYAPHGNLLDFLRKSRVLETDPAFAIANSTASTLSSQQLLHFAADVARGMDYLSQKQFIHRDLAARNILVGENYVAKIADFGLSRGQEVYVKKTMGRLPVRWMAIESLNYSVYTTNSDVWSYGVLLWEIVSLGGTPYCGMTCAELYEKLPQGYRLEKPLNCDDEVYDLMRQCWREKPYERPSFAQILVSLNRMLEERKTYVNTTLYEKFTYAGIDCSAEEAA
Assay: In vitro receptor tyrosine kinase inhibition assay (ELISA, Test (a))
Type: biochemical
Design: consist of only the intracellular portion C-terminal portion of the respective receptor, within which is found the kinase domain; made in house; host or cells: baculovirus/Sf21 insect cells; cleared lysate used without purification
Conditions: recombinant human Tie2 kinase domain, peptide substrate
MEASUREMENT NAME: IC50 (µM)

A: CC(C)(C)c1cc(NC(=O)Nc2cccc(C#Cc3cnc(N)cn3)c2)no1
B: CC(C)(C)c1cc(NC(=O)Nc2cccc(C#Cc3cccnc3N)c2)no1
C: CC(C)(C)c1cc(NC(=O)Nc2cccc(C#Cc3ccc(N)nc3)c2)no1
Order them by IC50, ascending: the molecules above. Labels, ranked as asked.
C, A, B
(C: 2.6 µM, A: 4.4 µM, B: 8.2 µM)
